SYSTEM_TESTED: αMI-domain double mutant of integrin Mac-1 (αMβ2, CD11b/CD18) (Homo sapiens, UniProt P11215, R232A/T229A)
Construct: αMI-domain, human mutant
Sequence (P11215 150-328 T229A/R232A limits assumed): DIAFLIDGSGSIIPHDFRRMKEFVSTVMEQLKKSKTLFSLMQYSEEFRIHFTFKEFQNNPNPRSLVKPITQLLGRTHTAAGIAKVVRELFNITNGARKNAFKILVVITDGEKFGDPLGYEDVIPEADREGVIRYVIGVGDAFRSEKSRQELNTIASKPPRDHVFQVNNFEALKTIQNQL
METHOD_NOTES: SPR (Biacore […], ~[…] RU, steady-state affinity); low-level binding, no consistent interaction at ~[…] RU
pKd: −log10 of the molar value.
READOUT_KIND: pKd

Qu. Entry N[C@H]1C(O)O[C@H](CO)[C@@H](O)[C@@H]1O (stereo partly shown) : reported pKd = ?
Ans. ~3.61
